Biological target: T1, 4H1446-bA
T1 chain: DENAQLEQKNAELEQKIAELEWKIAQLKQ
Test: two-hybrid library CCNG1;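 also: natural log of median RNA to DNA barcode read ratio; higher means stronger binding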
measureName: interaction score

# binder, interaction score
records = [
    ("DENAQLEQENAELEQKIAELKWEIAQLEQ [4H1193-bA]", -0.515),
]

[I] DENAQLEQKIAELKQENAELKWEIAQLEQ [4H1369-bA]
[II] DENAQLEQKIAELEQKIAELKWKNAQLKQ [4H1328-bA]
[III] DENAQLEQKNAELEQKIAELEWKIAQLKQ [4H1446-bA]
[IV] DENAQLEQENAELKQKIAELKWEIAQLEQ [4H1257-bA]
Parameters: sort_field (interaction score), sort_dir (desc). Write the labels out in the order the request specifies.
III, II, IV, I
(III: 0.569, II: 0.372, IV: -0.55, I: -0.956)
